# Test system: S. aureus RN4220
# Assay Comment: growth inhibition call (relative growth <= 0.2)
# Assay Setup: 50 µM
Screen size: about 39,000 compounds; about 500 (1.3%) were called active. The sample holds actives, similar compounds and a random draw of the others, so the mix is not that of the screen.
Measured Quantity: growth inhibition call

Task: GET /values?readout=growth inhibition call&item= CN[C@H]1[C@@H](O[C@H]2[C@@H](O[C@H]3[C@@H](O)[C@@H](O)[C@@H](NC(=N)N)[C@@H](O)[C@@H]3NC(=N)N)O[C@@H](C)[C@@]2(O)C=O)O[C@@H](CO)[C@@H](O)[C@@H]1O.CN[C@H]1[C@@H](O[C@H]2[C@@H](O[C@H]3[C@@H](O)[C@@H](O)[C@@H](NC(=N)N)[C@@H](O)[C@@H]3NC(=N)N)O[C@@H](C)[C@@]2(O)C=O)O[C@@H](CO)[C@@H](O)[C@@H]1O.O=S(=O)(O)O.O=S(=O)(O)O.O=S(=O)(O)O
Output: inactive

Task: Suppose we examine the molecule CN[C@@H]1[C@H](O[C@H]2[C@H](O[C@H]3[C@H](O)[C@@H](O)[C@H](NC(=N)N)[C@@H](O)[C@@H]3NC(=N)N)O[C@@H](C)[C@]2(O)C=O)O[C@@H](CO)[C@H](O)[C@H]1O ; what growth inhibition call value has been reported?
Output: inactive

Task: Recorded growth inhibition call of C[n+]1ccn(C[C@@]2(C)[C@H](C(=O)O)N3C(=O)C[C@H]3S2(=O)=O)n1 , please.
Output: active

Task: # get_value(readout='growth inhibition call', item= COC(=O)C1=CC(CCCO)=C[C@@H](c2cccs2)N(Cc2cccc(OC(F)(F)F)c2)C=C1C(=O)OC )
Output: active
